Origin of the recorded values: patent US9994552B2

Each entry below carries its reported IC50.
Target: D816V Kit (Homo sapiens (Human), UniProt P10721, D816V)
Sequence (P10721 26-976 D816V): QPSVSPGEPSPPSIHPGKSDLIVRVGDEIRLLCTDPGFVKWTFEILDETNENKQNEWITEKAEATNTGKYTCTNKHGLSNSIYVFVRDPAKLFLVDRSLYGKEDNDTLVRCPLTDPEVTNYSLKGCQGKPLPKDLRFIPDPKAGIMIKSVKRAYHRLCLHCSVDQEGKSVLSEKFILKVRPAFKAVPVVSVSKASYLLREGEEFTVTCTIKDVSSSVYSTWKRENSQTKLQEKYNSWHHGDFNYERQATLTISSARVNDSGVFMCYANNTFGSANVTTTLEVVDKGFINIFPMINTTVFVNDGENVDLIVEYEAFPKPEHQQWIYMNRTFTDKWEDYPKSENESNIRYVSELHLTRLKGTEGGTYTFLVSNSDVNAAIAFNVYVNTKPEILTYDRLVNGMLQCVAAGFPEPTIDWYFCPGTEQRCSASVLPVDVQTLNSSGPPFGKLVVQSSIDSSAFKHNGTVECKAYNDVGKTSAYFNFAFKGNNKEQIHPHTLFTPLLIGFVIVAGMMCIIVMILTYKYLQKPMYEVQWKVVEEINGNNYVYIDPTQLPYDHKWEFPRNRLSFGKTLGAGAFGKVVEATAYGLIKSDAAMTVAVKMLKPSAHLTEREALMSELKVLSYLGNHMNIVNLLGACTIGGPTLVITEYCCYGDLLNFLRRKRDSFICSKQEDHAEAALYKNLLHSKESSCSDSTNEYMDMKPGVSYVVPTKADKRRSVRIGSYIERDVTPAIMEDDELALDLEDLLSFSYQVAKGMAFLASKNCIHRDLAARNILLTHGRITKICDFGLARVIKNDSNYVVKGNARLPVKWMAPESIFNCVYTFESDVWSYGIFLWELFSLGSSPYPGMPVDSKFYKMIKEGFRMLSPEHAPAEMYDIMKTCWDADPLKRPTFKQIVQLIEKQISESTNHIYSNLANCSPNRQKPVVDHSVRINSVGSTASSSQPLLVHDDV
Assay: Kit D816V assay at Km (Caliper electrophoretic mobility shift)
Assay type: biochemical
Details: D816V Kit 0.5 nM, 15 uM ATP (Km), 1 uM Srctide, 25 C, 90 minutes; read-out: INH-KITD816V ENZ-KM IC50 (nM) (Num)

Examples with answers:
| compound | IC50 |
| --- | --- |
| COc1cc2ncnc(N3CCN(c4ncc(Cc5ccc(F)cc5)cn4)CC3)c2cc1OC | 1.01 to 10 nM |
| COc1cc2ncnc(N3CCN(c4ncc(Cc5ccccc5)cn4)C(C)C3)c2cc1OC (stereo not drawn) [Compound 26] | 10 to 100 nM |
| COc1cc2ncnc(N3CC4CCC(C3)N4c3ncc(Cc4ccccc4)cn3)c2cc1OCC1CNCCO1 (stereo not drawn) | < 1 nM |
| COc1cc2ncnc(N3CCN(c4ncc(Cc5ccccc5)cn4)CC3)c2cc1OC[C@@H]1CNCCO1 | 1.01 to 10 nM |
| COc1cc2ncnc(N3CCN(c4ncc(Cc5ccccc5)c(N)n4)CC3)c2cc1OC[C@@H]1CCCN(C)C1 | < 1 nM |

query: # query: IC50 of entry COc1cc2c(N3CCN(c4ncc(Cc5ccccc5)cn4)CC3)ncnc2cc1OCCCN1CCCCC1
result: 10 to 100 nM

query: Item under review: COc1cc2ncnc(N3CCN(c4ncc(OCc5cccs5)cn4)CC3)c2cc1OC . Reported IC50?
result: 1.01 to 10 nM

query: Query (compound): COc1cc2ncnc(N3CCN(c4ncc(Sc5ccccc5)cn4)CC3)c2cc1OC ; field requested: IC50
result: 1.01 to 10 nM

query: Which measured IC50 value corresponds to COc1cc2ncnc(N3CCN(c4ncc(Cc5ccc(C(F)(F)F)cc5)cn4)CC3)c2cc1OC ?
result: 10 to 100 nM

query: # get_value(readout='IC50', item= COc1cc2ncnc(N3CCN(c4ncc(Cc5ccccc5)cn4)CC3)c2cc1OCC1CNC1 )
result: 1.01 to 10 nM

###

Biological target: D816V Kit (Homo sapiens (Human), UniProt P10721, D816V)
Assay: Kit D816V assay at Km (Caliper electrophoretic mobility shift)
Assay type: biochemical
Conditions: D816V Kit 0.5 nM, 15 uM ATP (Km), 1 uM Srctide, 25 C, 90 minutes; read-out: INH-KITD816V ENZ-KM IC50 (nM) (Num)
A collection of molecules and their measured IC50

See these solved cases before continuing.
| molecule | targetEntity | IC50 |
| --- | --- | --- |
| COc1cc2ncnc(N3CCN(c4ncc(Cc5ccccc5)cn4)CC3)c2cc1OCCN1CCNCC1 [Compound 116] | D816V Kit (Homo sapiens (Human), UniProt P10721, D816V) | 1.01 to 10 nM |
| COc1cc2ncnc(N3CCN(c4ncc(Cc5ccccc5)cn4)CC3)c2cc1OC[C@H]1CNCCO1 [Compound 104] | D816V Kit (Homo sapiens (Human), UniProt P10721, D816V) | < 1 nM |

query: Recorded IC50 for COc1cc2ncnc(N3CCN(c4ncc(NCc5ccc6c(c5)OCO6)cn4)CC3)c2cc1OC [Compound 83] , please?
result: > 100 nM

query: # get_value(readout='IC50', item= COc1cc2ncnc(N3CCN(c4ncc(Cc5ccccc5)cn4)CC3)c2cc1OCC(O)CO (stereo not shown) [Compound 84] )
result: 1.01 to 10 nM

query: So what's the measured IC50 for this one? COc1cc2ncnc(N3CCN(c4ncc(Cc5ccccc5)cn4)CC3)c2cc1OC1CCNCC1 [Compound 91]
result: 1.01 to 10 nM

query: If you can, please state the reported IC50 value of COc1cc2ncnc(N3CCN(c4ncc(NC(=O)Cc5ccccc5)cn4)CC3)c2cc1OC [Compound 76] .
result: 10 to 100 nM

query: # input molecule: CCOc1cc2ncnc(N3CCN(c4ncc(Cc5ccccc5)c(=O)[nH]4)CC3)c2cc1OCC1CCN(C)CC1 [Compound 138] ; wanted: its IC50
result: < 1 nM

###

Target: D816V Kit (Homo sapiens (Human), UniProt P10721, D816V)
Assay: Kit D816V assay at Km (Caliper electrophoretic mobility shift)
Type: biochemical
Conditions: D816V Kit 0.5 nM, 15 uM ATP (Km), 1 uM Srctide, 25 C, 90 minutes; read-out: INH-KITD816V ENZ-KM IC50 (nM) (Num)
experimentalEndpoint: IC50

Solved entries (count: 4):
| molecule | IC50 |
| --- | --- |
| COc1cc2ncnc(N3CCN(c4ncc(Nc5cccc(C)c5)cn4)CC3)c2cc1OC | 10 to 100 nM |
| COc1cc2c(N3CCN(c4ncc(Cc5ccccc5)cn4)CC3)ncnc2cc1OCC(O)CO (centres unmarked) | 1.01 to 10 nM |
| COc1cc2ncnc(N3CCN(c4nccc(Cc5ccccc5)n4)CC3)c2cc1OC | > 100 nM |
| COc1ccc2ncnc(N3CCN(c4ncc(OCc5ccccc5)cn4)CC3)c2c1 | > 100 nM |

Now for the molecule whose IC50 we want.
query: What value of IC50 has been recorded for this entry: COc1cc2ncnc(N3CCN(c4ncc(OCc5ccc(C)cc5)cn4)CC3)c2cc1OC
result: 10 to 100 nM
